Origin of values: ChEMBL document CHEMBL4513216

test system: Plasmodium berghei; test: Screen against P. berghei liver stage (PbLuc), transformed with Luciferase, at 10uM; format: functional, HepG2; settings: tested at 10 uM
About 8,600 (12%) of roughly 69,000 compounds showed an effect of 50% or more. What follows is part of a selection rich in strong results, with near analogues and random picks from the rest.
MEASUREMENT LABEL: INHIBITION

| COMPOUND | RECORDED VALUE |
| --- | --- |
| CCOc1ccc2[nH]c(=O)c(CN3CCC(n4cnnc4)CC3)cc2c1 | 43.4% |
| c1cnn(CC2CN(Cc3csc(C4CCCCC4)n3)CCO2)c1 (centres undefined) | 64.8% |
| CC(C)c1nc(CN2CCOC(Cn3cncn3)C2)cs1 (centres undefined) | -33.9% |
| c1coc(CN2CCc3nnc(COc4cncnc4)n3CC2)c1 | 10.6% |
